Assay: Anti-proliferative activity against human ARP-1cells assessed as cell growth inhibition incubated for 72 hrs by CCK-8 assay
Settings: ARP-1, 72 h
Could you please report measured pIC50 for the items listed next?
Numbers only, as −log10 of the molar value.

Use the examples below as a reference point.
{"Compound": "CC(=O)OC[C@H]1O[C@@H](NC(=O)c2ccccc2)C(=O)CC1Sc1ccc(Cl)cc1 (some centres undefined)", "pIC50": 5.98}
{"Compound": "COc1ccc(SC2CC(=O)[C@H](NC(=O)c3ccc4c(c3)OCO4)O[C@@H]2COC(C)=O)cc1OC (some centres undefined)", "pIC50": 5.68}
{"Compound": "CC(=O)OC[C@H]1O[C@@H](NC(=O)c2ccc3c(c2)OCO3)C(=O)CC1SCc1ccco1 (some centres undefined)", "pIC50": 5.57}
{"Compound": "CC(=O)OC[C@H]1O[C@@H](NC(=O)c2ccc3c(c2)OCO3)C(=O)CC1Sc1ccc(C)cc1 (some centres undefined)", "pIC50": 5.81}
{"Compound": "O=C1C2C3C=CC(C4CC34)C2C(=O)N1c1ccc(Cc2ccncc2)cc1 (centres undefined)", "pIC50": 5.26}
{"Compound": "COc1ccc(SC2CC(=O)[C@H](NC(=O)c3ccc4c(c3)OCO4)O[C@@H]2COC(C)=O)cc1 (some centres undefined)", "pIC50": 5.86}
{"Compound": "COc1ccc(SC2CC(=O)[C@H](NC(=O)c3ccc(OC)cc3)O[C@@H]2COC(C)=O)cc1 (some centres undefined)", "pIC50": 5.85}
{"Compound": "COc1ccc(C(=O)N[C@@H]2O[C@H](COC(C)=O)C(Sc3ccc(C)cc3)CC2=O)cc1 (some centres undefined)", "pIC50": 5.34}

GET /value?item= CC(=O)OC[C@H]1O[C@@H](NC(=O)c2ccc3c(c2)OCO3)C(=O)CC1Sc1cc(C)cc(C)c1 (some centres undefined) &field=pIC50 returns 5.64

Attribution: ChEMBL document CHEMBL5614386
